- study_target: type IV phosphodiesterase
- experimental_details: Type IV phosphodiesterase inhibiting activity
- experimental_setup: U937 type IV phosphodiesterase fraction, 0.28 μM cAMP, pH 7.5, 30° C., 30 minutes; read-out: PDEIV-IC50
Structures can show the parent of a compound that is named as a salt.
measurement_type: IC50 (nM)

>  <molecule>
Cc1cc(NC(=O)c2cn([C@H]3CC[C@H](O)CC3)c3ncccc3c2=O)on1 [Example 178]

>  <measurement_type>
IC50

>  <recorded_value>
3300

$$$$
>  <molecule>
O=C1CCC(n2cc(C(=O)Nc3c(Cl)cncc3Cl)c(=O)c3cccnc32)CC1 [Example 120]

>  <measurement_type>
IC50

>  <recorded_value>
2.7

$$$$
>  <molecule>
CCn1cc(C(=O)NCCc2ccncc2)c(=O)c2ccc(C)nc21 [Comp. Ex., reference compound]

>  <measurement_type>
IC50

>  <recorded_value>
5200

$$$$
>  <molecule>
NC(=O)N1CC[C@H](n2cc(C(=O)Nc3c(Cl)cncc3Cl)c(=O)c3cccnc32)C1 [Example 20]

>  <measurement_type>
IC50

>  <recorded_value>
12

$$$$
>  <molecule>
O=C(Nc1c(Cl)cncc1Cl)c1cn([C@H]2CC[C@@H](O)CC2)c2ncccc2c1=O [Example 119]

>  <measurement_type>
IC50

>  <recorded_value>
1

$$$$
>  <molecule>
Cc1cnccc1NC(=O)c1cn(C2CC2)c2ncccc2c1=O [Example 157]

>  <measurement_type>
IC50

>  <recorded_value>
130

$$$$
>  <molecule>
O=C(Nc1ccncc1)c1cn([C@H]2CC[C@@H](O)CC2)c2ncccc2c1=O [Example 115]

>  <measurement_type>
IC50

>  <recorded_value>
210

$$$$
>  <molecule>
O=C(Nc1ccncc1)c1cn(C2CC2)c2ncccc2c1=O [Example 139]

>  <measurement_type>
IC50

>  <recorded_value>
240

$$$$
>  <molecule>
O=C(Nc1c(Cl)cncc1Cl)c1cn([C@H]2CCOC2)c2ncccc2c1=O [Example 44]

>  <measurement_type>
IC50

>  <recorded_value>
2.7

$$$$
>  <molecule>
O=C(NC1CC1)c1cn([C@H]2CC[C@H](O)CC2)c2ncccc2c1=O [Example 170]

>  <measurement_type>
IC50

>  <recorded_value>
990

$$$$
>  <molecule>
CCC(=O)O[C@H]1CC[C@H](n2cc(C(=O)Nc3c(Cl)cncc3Cl)c(=O)c3cccnc32)CC1 [Example 129]

>  <measurement_type>
IC50

>  <recorded_value>
9.3

$$$$
>  <molecule>
O=C(Nc1ccncc1)c1cn(C2CCSCC2)c2ncccc2c1=O [Example 100]

>  <measurement_type>
IC50

>  <recorded_value>
43

$$$$
>  <molecule>
COC(=O)N1CC(n2cc(C(=O)Nc3c(Cl)cncc3Cl)c(=O)c3cccnc32)C1 [Example 34]

>  <measurement_type>
IC50

>  <recorded_value>
24

$$$$
>  <molecule>
CCN(CC)Cc1ccc(C(=O)O[C@H]2CC[C@H](n3cc(C(=O)Nc4c(Cl)cncc4Cl)c(=O)c4cccnc43)CC2)cc1 [Example 159, hydrochloride]

>  <measurement_type>
IC50

>  <recorded_value>
4

$$$$
>  <molecule>
O=C(NC1CCCC1)c1cn([C@H]2CC[C@H](O)CC2)c2ncccc2c1=O [Example 168]

>  <measurement_type>
IC50

>  <recorded_value>
1500

$$$$
>  <molecule>
CC1(O)CCC(n2cc(C(=O)Nc3c(Cl)cncc3Cl)c(=O)c3cccnc32)CC1 (centres unmarked) [Example 192]

>  <measurement_type>
IC50

>  <recorded_value>
4.1

$$$$
>  <molecule>
O=C(Nc1c(Cl)cncc1Cl)c1cn([C@H]2CCN(C(=O)OCc3ccccc3)C2)c2ncccc2c1=O [Example 10]

>  <measurement_type>
IC50

>  <recorded_value>
1.5

$$$$
